tested on: OVCAR-8 ovarian; test: NCI tumour cell line growth inhibition, 48 h; in the data active = GI50 below about 0.43 µM; inactive = the rest
Possible outcomes: true (1) (active), false (0) (inactive)

- smilesInput: "Cc1cc(C(=O)Nc2ncc(Cc3cccc(C(F)(F)F)c3)s2)c2ccccc2n1"
  system: "OVCAR-8 ovarian"
  discreteLabel: "false (0)"
- smilesInput: "Cc1cc(S(=O)(=O)Nc2nnc(-c3ccccc3)c(-c3ccccc3)n2)c(SCC(N)=O)cc1Cl"
  system: "OVCAR-8 ovarian"
  discreteLabel: "false (0)"
- smilesInput: "COc1ccc(Cn2cc3c(c2-c2ccccc2)CC(C)(C)c2cnoc2-3)cc1"
  system: "OVCAR-8 ovarian"
  discreteLabel: "false (0)"
- smilesInput: "Cc1cccc(N2CCN(C(=S)c3ccc4c(c3)OCO4)CC2)c1"
  system: "OVCAR-8 ovarian"
  discreteLabel: "false (0)"
- smilesInput: "COc1cc(-c2ccc3c(c2)NC(=O)/C3=C\\c2ccc[nH]2)ccc1O"
  system: "OVCAR-8 ovarian"
  discreteLabel: "true (1)"
- smilesInput: "O=C(N/N=C/c1ccc(Cl)cc1)c1ccc(C(F)(F)F)nc1Nc1cccc(C(F)(F)F)c1"
  system: "OVCAR-8 ovarian"
  discreteLabel: "false (0)"
- smilesInput: "COc1ccc(Nc2c3ccccc3nc3occc23)cc1"
  system: "OVCAR-8 ovarian"
  discreteLabel: "false (0)"
- smilesInput: "COC(=O)C1=CNC=C(C(=O)OC)C1C1=CC(=O)C(C)=CC1=O"
  system: "OVCAR-8 ovarian"
  discreteLabel: "false (0)"
- smilesInput: "NS(=O)(=O)c1ccc(N=Nc2c(O)[nH]c3ccc(-c4cnco4)cc23)cc1"
  system: "OVCAR-8 ovarian"
  discreteLabel: "false (0)"
- smilesInput: "CCOC(=O)c1c(C)n(Cc2ccc(Cl)cc2Cl)c2c1c(CN(C)C)c(O)c1[nH]cnc12"
  system: "OVCAR-8 ovarian"
  discreteLabel: "false (0)"

Where these numbers come from: PubChem BioAssay (NCI)
